- Assay: qHTS assay to identify small molecule antagonists of the estrogen receptor alpha (ER-alpha) signaling pathway - cell viability counter screen (AID 743074);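 note: HEK293 cells carrying ER-alpha-UAS-bla reporter stimulated with 17beta-estradiol; nearly all actives have a fitted effect of over 45% in size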
- Study conditions: ERalpha-bla HEK293 viability, CellTiter-Glo luminescence, 18 h; series mostly up to 69.4 µM
Inconclusive results are not listed. The source made the active and inactive calls. Calls come from the whole dose curve.
Labels: T = active, F = inactive

>  <Molecule>
C[C@@H]1CCC2[C@@H](C)[C@@H](O)O[C@@H]3O[C@@]4(C)CC[C@@H]1[C@@]23OO4 (stereo partly drawn)

>  <Discrete label>
F

$$$$
>  <Molecule>
[O]=[Bi][O][Bi]=[O]

>  <Discrete label>
F

$$$$
>  <Molecule>
O=C(O)c1cc(N=Nc2ccc(O)c(C(=O)O)c2)ccc1O

>  <Discrete label>
F

$$$$
>  <Molecule>
O=C(O)CCC/C=C\C[C@@H]1[C@@H](/C=C/[C@@H](O)COc2cccc(C(F)(F)F)c2)[C@H](O)C[C@@H]1O

>  <Discrete label>
F

$$$$
>  <Molecule>
O=C(CO)[C@@H](O)[C@H](O)[C@@H](O)C(=O)O

>  <Discrete label>
F

$$$$
>  <Molecule>
O=C(O)c1nc(=O)[nH]c(=O)[nH]1

>  <Discrete label>
F

$$$$
>  <Molecule>
CO[C@H]1C[C@H](O[C@H]2[C@H](C)O[C@@H](O[C@@H]3/C(C)=C/C[C@@H]4C[C@@H](C[C@]5(C=C[C@H](C)[C@@H](C6CCCCC6)O5)O4)OC(=O)[C@@H]4C=C(C)[C@@H](O)[C@H]5OC/C(=C\C=C\[C@@H]3C)[C@]54O)C[C@@H]2OC)O[C@@H](C)[C@@H]1O

>  <Discrete label>
T

$$$$
>  <Molecule>
COC(=O)C1=C(C)NC(C)=C(C(=O)O[C@H]2CCN(Cc3ccccc3)C2)[C@H]1c1cccc([N+](=O)[O-])c1

>  <Discrete label>
F

$$$$

====

- Assay: qHTS assay for small molecules that induce genotoxicity in human embryonic kidney cells expressing luciferase-tagged ATAD5 (AID 651632); note: nearly all actives have a fitted effect of over 15% in size
- Study conditions: HEK293T ATAD5-luciferase induction, 16 h; series mostly up to 83.3 µM
Inconclusive results are not listed. Active and inactive are the calls of the source. Calls follow the shape of the dose curve; as a rule, active = well fitted activation curve with a large enough effect in the repeat runs; inconclusive = weak or mixed curves; inactive = no such curve, though single readings can be large or run the other way.

>  <Molecule>
O=C(O)c1c(Cl)c(Cl)c(Cl)c(Cl)c1-c1c2cc(I)c(=O)c(I)c-2oc2c(I)c(O)c(I)cc12

>  <outcome>
inactive

$$$$
>  <Molecule>
CCCCCCCCCCCCCCCC(=O)OC[C@@H](NC(=O)C(Cl)Cl)[C@H](O)c1ccc([N+](=O)[O-])cc1

>  <outcome>
inactive

$$$$
>  <Molecule>
O=C(OC[C@H]1O[C@](O)(COC(=O)c2cccnc2)[C@@H](OC(=O)c2cccnc2)[C@@H]1OC(=O)c1cccnc1)c1cccnc1

>  <outcome>
inactive

$$$$
>  <Molecule>
Nc1ncnc2c1ncn2CCOCP(=O)(O)O

>  <outcome>
inactive

$$$$
>  <Molecule>
CCCCCCCCCCCCCCCCCC(=O)OC[C@@H](O)[C@H]1OC[C@H](O)[C@H]1O

>  <outcome>
inactive

$$$$
>  <Molecule>
NCCC[C@H](N)C(=O)O

>  <outcome>
inactive

$$$$
>  <Molecule>
O=C(CCCN1CCC(C(=O)c2ccc(F)cc2)CC1)c1ccc(F)cc1

>  <outcome>
inactive

$$$$
>  <Molecule>
CCc1ccc2c(c1)N(CC(C)CN(C)C)c1ccccc1S2 (centres undefined)

>  <outcome>
inactive

$$$$
>  <Molecule>
CC1(C)S[C@@H]2[C@H](NC(=O)[C@H](NC(=O)N3CCN(S(C)(=O)=O)C3=O)c3ccccc3)C(=O)N2[C@H]1C(=O)O

>  <outcome>
inactive

$$$$
